Target: UT-B (Homo sapiens, UniProt Q13336)
Construct: a red blood cell (i.e., erythrocyte), which endogenously expresses the urea transporter UT-B; endogenous in cells; host or cells: human red blood cells (whole venous blood, single donor)
Sequence (Q13336 1-389): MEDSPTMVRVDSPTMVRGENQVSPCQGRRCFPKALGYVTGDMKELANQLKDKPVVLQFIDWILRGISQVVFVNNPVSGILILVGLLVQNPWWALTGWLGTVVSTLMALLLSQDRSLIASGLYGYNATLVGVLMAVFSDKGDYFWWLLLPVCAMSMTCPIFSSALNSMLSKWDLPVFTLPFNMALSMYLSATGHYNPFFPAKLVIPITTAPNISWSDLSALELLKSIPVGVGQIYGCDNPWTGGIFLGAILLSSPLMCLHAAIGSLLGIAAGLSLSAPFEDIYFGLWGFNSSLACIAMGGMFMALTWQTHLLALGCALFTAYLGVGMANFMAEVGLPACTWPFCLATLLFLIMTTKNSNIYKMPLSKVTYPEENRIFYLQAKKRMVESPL
Assay: RBC lysis assay, human RBCs
Format: cell-based
Settings: lysis assay, FIG. 5B, read-out: apparent EC50
pEC50 overview
Notebook: values listed as pEC50 are -log10 of the concentration (mol/L).

Would you please look over these solved cases?
CCn1c(NCc2cc(Br)ccc2O)nc2ccccc21 6.40
COc1cc(OC)cc(S(=O)(=O)Nc2cc(OC)ccc2OC)c1 6.52
Cc1ccc(Nc2nnc(-c3ccc(C(N)=O)cc3)c3ccccc23)cc1 7.00

API: the following record is the query input.
Query string: So what's the measured pEC50 for this one? NC(=O)CSc1oc(-c2ccccc2)nc1S(=O)(=O)c1ccc(Br)cc1
Result string: 7.52

====

Target: UT-B (Homo sapiens)
Construct: a red blood cell (i.e., erythrocyte), which endogenously expresses the urea transporter UT-B; endogenous in cells; host or cells: human red blood cells (whole venous blood, single donor)
Sequence (Q13336 1-389): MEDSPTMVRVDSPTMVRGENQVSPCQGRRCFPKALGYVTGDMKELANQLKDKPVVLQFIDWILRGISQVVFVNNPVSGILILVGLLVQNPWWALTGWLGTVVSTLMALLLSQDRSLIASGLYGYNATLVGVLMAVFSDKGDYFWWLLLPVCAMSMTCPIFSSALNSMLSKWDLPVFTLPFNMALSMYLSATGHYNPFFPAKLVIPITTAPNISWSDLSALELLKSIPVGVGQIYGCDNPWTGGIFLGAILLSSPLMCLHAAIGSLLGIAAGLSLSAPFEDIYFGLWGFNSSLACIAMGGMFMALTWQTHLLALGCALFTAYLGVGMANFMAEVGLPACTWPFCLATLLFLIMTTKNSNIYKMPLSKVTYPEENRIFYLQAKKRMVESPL
Assay: RBC lysis assay, human RBCs
Assay type: cell-based
Settings: Table 2, read-out: EC50 (μM), UT-B inhibitory potency
QUANTITY_KIND: log10(EC50) (log10 of the value in µM)
Kindly note that the scale is log10 and the underlying EC50 is in µM.

O=S(=O)(Nc1ccc2c(c1)OCCO2)c1cccc(Br)c1 0.90
Cc1ccc(S(=O)(=O)Nc2ccc3c(c2)OCCO3)cc1C 1.00
COc1ccc(OC)c(NS(=O)(=O)c2cccc(Br)c2)c1 -0.15
Cc1cc(C)cc(S(=O)(=O)Nc2ccc3c(c2)OCCO3)c1 0.60
Cn1c(=O)oc2cc(NS(=O)(=O)c3cccc(C(F)(F)F)c3)ccc21 0.60
O=S(=O)(Nc1ccc2c(c1)OCCO2)c1ccc2ccccc2c1 1.00

Query string: Under UT-B (Homo sapiens): log10(EC50) value of COc1ccc(OC)c(NS(=O)(=O)c2ccc(Br)cc2)c1 ?
Result string: -0.40

Query string: Now this one: COc1cccc(S(=O)(=O)Nc2ccc3c(c2)OCCO3)c1
Result string: 0.78

Query string: How about this compound: NC(=O)c1ccc(S(=O)(=O)Nc2ccc3c(c2)OCCO3)cc1
Result string: 0.30

Query string: Further, for CC(=O)c1cccc(S(=O)(=O)Nc2ccc3c(c2)OCCO3)c1 ?
Result string: 0.78

Provenance of the data: patent US20110053995A1
